# protocol_notes: label from the status in PepcDB records
assay_metric: protein production

[[record]]
residue_codes = "MGTIGAAGCTVNRFAVALMPDSGGHPRKPIAGVDAPPPHLLLVARRMTRPGEHMALTTYTPVITVFAAGREWTLERAADLQTLWDNMVEADFGDDERLPYWTELWPSSLVLADWLHDNAGRIRGRTCLDMGCGLGLCSLVGQWLGARVTGMDYEPEALFHARRNAERNRVPQPLWTVMDWRAPAVRRHAADLVWGGDIMYERRFVTPVLDFLDHVLAPCGAAWVAEPGRTVYNHFRETLDARGWHARRVLSSETASLYEQPESVTVHLWEITRLEHHHHHH"
reported = "failed"

[[record]]
residue_codes = "MPTPAYIKIVGQTQGNITAGAFTADSVGNVFQQGHEDQILVQEIKHEVTTPTDPQSGQPSGQRVHKPFIFTSSLNKATPLMYQALATGEMLPTVEVSWYRTSSEGKQEHFFTTTLEDATIVSINTVLPHALDKDNENYTQLVEVSLAYRKITWAHDVANTEGSDDWRAPAA"
reported = "failed"

[[record]]
residue_codes = "MDFLGILCLLILATTLAGHFAHRAGIPAVIGEILVGVILGPALLNWVHLTTLVQTFSDIGVVVLMFIGGLESNLALLRKYLRPAIIVAIIGVIFPVVIMGLASRFFQFSWFESLFIGVIFSATSVSISVEVLKEFKVLDTKEGATILGAAVADDIIGVILLSIMIAMMGGQSGVAQTNLGIVLLEQVGFFIGVFIVIKWVAPYLMRLSDHLLMAASPTIMAIIICLALAWLAELVGLSGAIGAFFAGVAIAQTDYQHVVDVSIEPVGYTTFIPLFFVSVGLNMTFKGVWQSLPFIVVMTVLGVLTKLWGCGLGAKLNGFSRHSNYLVGAGMISRGEMALITAQIGFSAHLLSNDYYSDIILVIIVVTMIAPFVLKNAIHRAGQVTATHSIIEEH"
reported = "failed"

[[record]]
residue_codes = "EVVVTALGIKREKKMLGYAVQELKSDELNKTGDPSVTSALQGKVAGLQMNTSATGLGGSTKITIRGNSSLTDNNQPLWIVDGVPFSDTSTSSASRYDGVDRGSASMDINPDDIESISVLKGPNAAALYGSRAGNGVILITTKKGSK"
reported = "failed"

[[record]]
residue_codes = "MPKNKGKGGKNRKRGKNEADDEKRELIFKEDGQEYAQVLRMLGNGRCEAMCIDGTKRLCHIRGKMHKKVWIAAGDIVLVGLRDYQDDKADVILKYMSDEARLLKAYGELPENTRLNEGIVGDLEDDDDNNDDDYVEFEDEDIDRI"
reported = "failed"

[[record]]
residue_codes = "KEQILSSEQLARKMMLELGDKKQEHLVAIYMDTQNRIIEQRTIFIGTVRRSVAEPREILHYACKNMATSLIIIHNHPSGSPKPSESDLSFTKKIKRSCDHLGIVCLDHIIVGKNKYYSFREEADIL"
reported = "not failed"

[[record]]
residue_codes = "MAKKVAVLAVNPVNGCGLFQYLEAFFENGISYKVFAVSDTKEIKTNSGMVLIVDDVIANLKGHEDEFDALVFSCGDAVPVFQQYANQPYNVDLMEVIKTFGEKGKMMIGHCAGAMMFDFTGITKGKKVAVHPLAKPAIQNGIATDEKSEIDGNFFTAQDENTIWTMLPKVIEALKLEHHHHHH"
reported = "not failed"


Where these numbers come from: a protein production outcome set (Wang et al. 2014)
